# Tested on: EKVX NSCLC
# methodSummary: NCI-60 one-dose screen, 48 h (100 = growth as untreated, 0 = no growth, -100 = all killed)
# condition: 10 µM unless noted
About 83,000 compounds went through this panel and 20% of them were active in at least one assay; those are over-represented in the sample as a whole.
Recorded growth, one value per entry.
# number only, unit % dropped from output

query: Recall and state the measured growth for COc1cc(/C=C/C(=O)c2ccc(F)cc2)ccc1OCCCCOc1ccc(/C=C/C(=O)c2c(C)nc3ccccc3c2C)cc1OC .
result: 133

query: Recall and state the measured growth for CS(=O)(=O)Nc1cncc(-c2ccc3ncnc(Nc4cncc(Cl)c4)c3c2)c1 .
result: 96.1

query: Recall and state the measured growth for Clc1cc(Cl)c(Cl)c(-c2nnc(SCc3ccncc3Br)o2)c1 .
result: 84.5

query: Recall and state the measured growth for COc1ccc(C(=O)N2c3ccccc3Sc3ccccc32)c(OC)c1 .
result: 34

query: Recall and state the measured growth for Cc1c(-c2ccc(O)cc2)n(Cc2ccc(OCCN3CCCCCC3)cc2)c2ccc(O)cc12 .
result: 75.2

query: Recall and state the measured growth for CCSc1nc2scc(C)c2c(=O)[nH]1 .
result: 97.7

query: Recall and state the measured growth for N#Cc1c(-c2ccc(Cl)cc2)nc(NN2C(=O)c3ccccc3C2=O)nc1N1CCOCC1 .
result: 103

query: Recall and state the measured growth for Cn1c(=O)cc2c3c(c(NCCCO)ccc31)C(=O)c1ccccc1-2 .
result: 73.2

query: Recall and state the measured growth for C=C1C(=O)O[C@H]2[C@H]1CC/C(Cn1cc(-c3ccccc3)nn1)=C\CC[C@@]1(C)O[C@@H]21 .
result: 72.1

====

# Tested on: NCI-H460 lung
# methodSummary: NCI-60 one-dose screen, 48 h (100 = growth as untreated, 0 = no growth, -100 = all killed)
# condition: 10 µM unless noted
About 83,000 compounds went through this panel and 20% of them were active in at least one assay; those are over-represented in the sample as a whole.
Threshold check on growth: strictly below 70% is 1 (yes); on or above 70% is 0 (no).

Reference set, count: 7
query: Record COc1ccc(-c2noc(C(=O)O)c2-c2cc(OC)c(OC)c(OC)c2)cc1 : is its growth strictly below 70%?
result: 1 (yes)

query: Record CCCC/C=C/[C@@H]1C[C@H]1CCO : is its growth strictly below 70%?
result: 0 (no)

query: Record Cn1c(=O)c2nc(/C=C/c3ccccc3)c(=O)[nH]c2n(C)c1=S : is its growth strictly below 70%?
result: 0 (no)

query: Record Cc1ccccc1/C=C/C(=O)c1cccc(OCCCCOc2cccc(C(=O)/C=C/c3ccccc3C)c2)c1 : is its growth strictly below 70%?
result: 0 (no)

query: Record COc1ccc(-c2ccc(=O)oc2-c2cc(OC)c(OC)c(OC)c2)cc1O : is its growth strictly below 70%?
result: 1 (yes)

query: Record O=C(CN1C(=O)S/C(=C\C(Cl)=C\c2ccccc2)C1=O)NCCc1ccc(O)cc1 : is its growth strictly below 70%?
result: 1 (yes)

query: Record O=S(=O)(Nc1ccc(F)cc1F)c1ccc(-c2cnc(C3CC3)o2)cc1 : is its growth strictly below 70%?
result: 1 (yes)

Now for another entry.
query: Record CCn1cc(C(=O)O)c(=O)c2cc(F)c(N3CCN(CC(=O)Nc4ccc(S(=O)(=O)Nc5nccc(C)n5)cc4)C(C)C3)c(F)c21 (centres undefined) : is its growth strictly below 70%?
result: 0 (no)
